Exercise: for every item that follows, state its recorded Emax.
# SUBJECT OF TEST: F508delCFTR (Homo sapiens, UniProt P13569, DEL508-508)
# Construct: expressed in transfected cells; host or cells: CFBE41o- human lung derived epithelial cells (CFBE41o-F508delCFTR-HRP), doxycycline-inducible
# Sequence (P13569 with tags, fused parts or gaps DEL508-508): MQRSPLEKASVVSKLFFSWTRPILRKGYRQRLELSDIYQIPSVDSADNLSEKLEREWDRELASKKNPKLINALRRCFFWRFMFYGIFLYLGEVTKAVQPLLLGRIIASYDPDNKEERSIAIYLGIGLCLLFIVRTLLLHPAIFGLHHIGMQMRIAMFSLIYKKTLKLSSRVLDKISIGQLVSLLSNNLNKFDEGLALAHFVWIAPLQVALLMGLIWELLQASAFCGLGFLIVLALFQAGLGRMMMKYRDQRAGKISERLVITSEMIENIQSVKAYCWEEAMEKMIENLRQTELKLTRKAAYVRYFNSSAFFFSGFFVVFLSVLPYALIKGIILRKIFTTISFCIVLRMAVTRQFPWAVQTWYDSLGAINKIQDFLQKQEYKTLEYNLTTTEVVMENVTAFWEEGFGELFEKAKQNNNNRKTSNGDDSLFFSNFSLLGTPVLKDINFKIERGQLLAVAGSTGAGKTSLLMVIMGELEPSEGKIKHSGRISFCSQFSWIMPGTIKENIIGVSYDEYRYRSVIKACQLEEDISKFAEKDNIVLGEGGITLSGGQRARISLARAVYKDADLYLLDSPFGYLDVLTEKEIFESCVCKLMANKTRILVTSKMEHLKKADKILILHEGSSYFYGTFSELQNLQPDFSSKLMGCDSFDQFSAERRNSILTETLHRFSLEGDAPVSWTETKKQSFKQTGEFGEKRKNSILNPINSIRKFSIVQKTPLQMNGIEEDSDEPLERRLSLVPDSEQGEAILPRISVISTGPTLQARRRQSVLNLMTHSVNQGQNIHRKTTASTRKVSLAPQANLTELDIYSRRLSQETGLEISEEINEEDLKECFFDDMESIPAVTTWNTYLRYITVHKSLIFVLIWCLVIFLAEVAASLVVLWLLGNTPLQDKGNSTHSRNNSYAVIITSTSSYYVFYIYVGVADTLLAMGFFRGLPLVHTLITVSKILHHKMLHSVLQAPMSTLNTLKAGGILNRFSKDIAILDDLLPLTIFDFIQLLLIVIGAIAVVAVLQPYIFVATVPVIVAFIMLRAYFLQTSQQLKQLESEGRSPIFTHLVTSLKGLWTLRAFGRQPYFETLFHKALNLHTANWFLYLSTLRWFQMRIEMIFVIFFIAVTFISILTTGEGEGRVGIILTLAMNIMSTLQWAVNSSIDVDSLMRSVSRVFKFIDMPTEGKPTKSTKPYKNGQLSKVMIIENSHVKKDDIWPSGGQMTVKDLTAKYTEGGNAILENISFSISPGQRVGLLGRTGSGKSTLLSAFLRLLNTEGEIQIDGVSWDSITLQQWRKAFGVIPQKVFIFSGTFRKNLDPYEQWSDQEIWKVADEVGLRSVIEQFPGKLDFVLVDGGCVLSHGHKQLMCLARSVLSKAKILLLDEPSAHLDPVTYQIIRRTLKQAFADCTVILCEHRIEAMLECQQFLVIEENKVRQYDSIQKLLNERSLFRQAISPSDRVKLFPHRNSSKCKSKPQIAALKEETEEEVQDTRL
# ASSAY SUMMARY: Cell Surface Expression-Horse Radish Peroxidase (CSE-HRP) Assay;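 further: % of on-plate positive control chromenyl benzoic acid corrector at 2 or 3 µM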
# Format: cell-based
# ASSAY CONTEXT: test compound without co-corrector; maximum at any tested concentration; read-out: Maximum % activity (without co-corrector)

Please report the recorded Emax for CCOc1ncc(C2CCC2)cc1C1(C(=O)NS(=O)(=O)c2cccc3ncccc23)CC1 [Example GI-114] .
> 150%

Give the measured Emax of Cc1cnc(C2(C(=O)NS(=O)(=O)c3cccc4[nH]ccc34)CC2)c(C2CC2)c1 [GII-39] .
50 to 150%

Item under review: CCc1ccc(OC(C)C)c(C2(C(=O)NS(=O)(=O)c3cccc4ncccc34)CC2)n1 [Example GI-55] . Reported Emax?
> 150%

// lookup Emax for CCc1cnc(N2CCC(COC)CC2)c(C2(C(=O)NS(=O)(=O)c3cccc4ncccc34)CC2)c1 [GII-59]
> 150%

Emax for CC(C)Oc1ncccc1C1(C(=O)NS(=O)(=O)c2cccc3c2CCCN3)CC1 [GII-4] ?
50 to 150%

What does the data say about its Emax? Entry: COc1cnc(OCC2CC2)c(C2(C(=O)NS(=O)(=O)c3cccc4nc(C)ccc34)CC2)c1 [Example GI-92]
> 150%

Look up Emax for this compound: CC(C)COc1ccc(OC(C)C)c(C2(C(=O)NS(=O)(=O)c3cccc4ncccc34)CC2)n1 [Example GI-86]
> 150%

Fill in the blank: the reported Emax of CC(C)Oc1ncc(N2CCC2)cc1C1(C(=O)NS(=O)(=O)c2cccc3[nH]ccc23)CC1 [Example GI-85] is ____.
> 150%

Given the compound COc1cc(OC(C)C)c(C2(C(=O)NS(=O)(=O)c3cccc4[nH]ccc34)CC2)cn1 [GIII-3] , what is its reported Emax?
> 150%

Any idea what its Emax is? The compound is O=C(NS(=O)(=O)c1cccc2c1CCCN2)C1(c2ccc(C(F)(F)F)nc2Cl)CC1 [GIII-28]
< 50%

What does the record list as Emax for Cc1ccc2c(S(=O)(=O)NC(=O)C3(c4cc(C5CCC5)cnc4OCC4CC4)CC3)cccc2n1 [Example GI-110] ?
> 150%
